Target or system UniProt:P09874; recorded quantity pIC50.
Sequence (P09874 whole entry): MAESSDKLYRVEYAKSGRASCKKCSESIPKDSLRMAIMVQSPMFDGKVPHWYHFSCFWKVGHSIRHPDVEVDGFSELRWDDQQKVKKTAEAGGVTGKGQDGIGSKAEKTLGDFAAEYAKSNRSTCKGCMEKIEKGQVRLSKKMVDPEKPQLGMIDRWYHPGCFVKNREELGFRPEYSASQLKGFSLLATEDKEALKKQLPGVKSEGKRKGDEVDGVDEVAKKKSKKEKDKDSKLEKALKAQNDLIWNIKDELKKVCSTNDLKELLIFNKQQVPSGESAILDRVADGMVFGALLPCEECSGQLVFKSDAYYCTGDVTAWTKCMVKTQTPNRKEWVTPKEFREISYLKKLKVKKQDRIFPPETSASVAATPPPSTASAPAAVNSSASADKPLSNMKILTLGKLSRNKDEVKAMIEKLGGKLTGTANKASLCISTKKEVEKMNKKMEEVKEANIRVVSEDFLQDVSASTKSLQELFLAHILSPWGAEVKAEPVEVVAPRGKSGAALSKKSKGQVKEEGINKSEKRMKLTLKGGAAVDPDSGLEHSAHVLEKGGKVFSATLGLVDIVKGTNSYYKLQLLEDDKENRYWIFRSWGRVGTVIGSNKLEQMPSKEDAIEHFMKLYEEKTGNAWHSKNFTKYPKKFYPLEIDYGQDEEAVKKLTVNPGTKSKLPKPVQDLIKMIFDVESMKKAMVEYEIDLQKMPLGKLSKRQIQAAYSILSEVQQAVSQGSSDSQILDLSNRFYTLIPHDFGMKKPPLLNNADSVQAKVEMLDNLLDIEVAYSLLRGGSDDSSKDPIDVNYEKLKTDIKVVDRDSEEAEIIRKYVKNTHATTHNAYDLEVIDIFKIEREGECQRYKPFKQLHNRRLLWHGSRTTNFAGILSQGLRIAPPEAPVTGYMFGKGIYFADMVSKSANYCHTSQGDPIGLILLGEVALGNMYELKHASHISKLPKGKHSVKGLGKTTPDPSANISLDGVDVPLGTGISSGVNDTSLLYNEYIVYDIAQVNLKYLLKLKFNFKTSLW
pIC50: −log10 of the molar value.
assayEndpoint: pIC50

1. O=C(c1cc(Cc2n[nH]c(=O)c3ccccc23)ccc1F)N1CCCN(C(=O)C2CC2)CC1 | 7.92
2. CN1CCN(C(=O)c2cc(Cc3n[nH]c(=O)c4ccccc34)ccc2F)CC1 | 7.89
3. O=C(c1cccc(Cc2n[nH]c(=O)c3ccccc23)c1)N1CCCN(Cc2ccccc2)CC1 | 7.74
4. O=C(c1cccc(Cc2n[nH]c(=O)c3ccccc23)c1)N1CCN(c2ccccc2)CC1 | 7.29
5. O=C(c1cc(Cc2n[nH]c(=O)c3ccccc23)ccc1F)N1CCCN(C(=O)N2CCOCC2)CC1 | 8.10
6. O=C(c1cccc(Cc2n[nH]c(=O)c3ccccc23)c1)N1CCCN(C(=O)N2CCOCC2)CC1 | 7.70
7. O=C(c1ccccc1)N1CCN(C(=O)c2cc(Cc3n[nH]c(=O)c4ccccc34)ccc2F)CC1 | 8.22
8. O=C(c1cc(Cc2n[nH]c(=O)c3ccccc23)ccc1F)N1CCN(c2ccccn2)CC1 | 8.70
9. CCN1CCN(C(=O)c2cc(Cc3n[nH]c(=O)c4ccccc34)ccc2F)CC1 | 8.22
10. O=C(c1cc(Cc2n[nH]c(=O)c3ccccc23)ccc1F)N1CCN(C(=O)C2CCCCC2)CC1 | 7.82
11. CCS(=O)(=O)N1CCN(C(=O)c2cccc(Cc3n[nH]c(=O)c4ccccc34)c2)CC1 | 7.92
12. O=C(c1cccc(Cc2n[nH]c(=O)c3ccccc23)c1)N1CCN(c2ncccn2)CC1 | 8.70
13. O=C(c1cc(Cc2n[nH]c(=O)c3ccccc23)ccc1F)N1CCNCC1 | 8.30
14. O=C(c1ccccc1)N1CCN(C(=O)c2cccc(Cc3n[nH]c(=O)c4ccccc34)c2)CC1 | 7.96
15. O=C(c1cc(Cc2n[nH]c(=O)c3ccccc23)ccc1F)N1CCN(C(=O)C2CCOC2)CC1 (centres undefined) | 8.70
16. CCS(=O)(=O)N1CCCN(C(=O)c2cccc(Cc3n[nH]c(=O)c4ccccc34)c2)CC1 | 7.64
17. CC(=O)N1CCN(C(=O)c2cc(Cc3n[nH]c(=O)c4ccccc34)ccc2F)CC1 | 8.22
18. O=C(c1cc(Cc2n[nH]c(=O)c3ccccc23)ccc1F)N1CCN(CCO)CC1 | 7.92
19. O=C(c1cccc(Cc2n[nH]c(=O)c3ccccc23)c1)N1CCN(C(=O)N2CCOCC2)CC1 | 8.10
